IC50 values, listed per item
Target: Monoacylglycerol lipase ABHD6 (Mus musculus)
Sequence (Q8R2Y0 whole entry): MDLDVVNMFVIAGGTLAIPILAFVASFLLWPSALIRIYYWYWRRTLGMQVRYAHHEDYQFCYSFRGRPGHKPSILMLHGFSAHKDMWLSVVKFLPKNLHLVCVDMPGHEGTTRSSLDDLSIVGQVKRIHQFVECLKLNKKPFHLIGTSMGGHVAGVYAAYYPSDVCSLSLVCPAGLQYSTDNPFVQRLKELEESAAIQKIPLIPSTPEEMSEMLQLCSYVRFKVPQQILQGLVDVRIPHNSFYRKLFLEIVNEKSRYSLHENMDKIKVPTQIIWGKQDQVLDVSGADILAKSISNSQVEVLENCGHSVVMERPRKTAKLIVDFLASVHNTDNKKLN
Assay: Inhibition of FP-rhodamine probe binding to ABHD6 in mouse brain membrane proteome preincubated for 1 hr followed by FP-rhodamine addition and measured after 30 mins by SDS-PAGE based fluorescence assay

Item smiles	Assayed target	Unit abbrev	Value modifier	IC50
CN(CCN(C)C(c1ccc(OCc2ccccc2)cc1)c1ccc(OCc2ccccc2)cc1)C(=O)n1cccn1	Monoacylglycerol lipase ABHD6 (Mus musculus)	µM	>	1000
Cc1cnn(C(=O)N2CCN(Cc3ccc4ccccc4c3)CC2)c1	Monoacylglycerol lipase ABHD6 (Mus musculus)	µM	=	0.01
Cc1cnn(C(=O)N2CCCN(Cc3ccc(OCc4ccccc4)cc3)CC2)c1	Monoacylglycerol lipase ABHD6 (Mus musculus)	µM	=	9.5
CN(CCN(C)C(=O)n1cccn1)Cc1cccc(OCc2ccccc2)c1	Monoacylglycerol lipase ABHD6 (Mus musculus)	µM	=	5.5
N#Cc1cnn(C(=O)N2CCCN(Cc3ccc(OCc4ccccc4)cc3)CC2)c1	Monoacylglycerol lipase ABHD6 (Mus musculus)	µM	=	0.085
CN(CCN(C)C(=O)n1cc(C#N)cn1)Cc1cccc(OCc2ccccc2)c1	Monoacylglycerol lipase ABHD6 (Mus musculus)	µM	=	1.1
N#Cc1cnn(C(=O)N2CCN(Cc3ccc(OCc4ccccc4)cc3)CC2)c1	Monoacylglycerol lipase ABHD6 (Mus musculus)	µM	<	0.01
CN(CCN(C)C(c1ccc(OCc2ccccc2)cc1)c1ccc(OCc2ccccc2)cc1)C(=O)n1cc(C#N)cn1	Monoacylglycerol lipase ABHD6 (Mus musculus)	µM	>	1000
O=C(N1CCN(C(c2ccc3ccccc3c2)c2ccc3ccccc3c2)CC1)n1cccn1	Monoacylglycerol lipase ABHD6 (Mus musculus)	µM	>	100
O=C(N1CCCCC1)n1cccn1	Monoacylglycerol lipase ABHD6 (Mus musculus)	µM	=	5
Cc1cnn(C(=O)N(C)CCN(C)C(c2ccc(OCc3ccccc3)cc2)c2ccc(OCc3ccccc3)cc2)c1	Monoacylglycerol lipase ABHD6 (Mus musculus)	µM	>	1000
O=C(N1CCN(Cc2ccc(OCc3ccccc3)cc2)CC1)n1cccn1	Monoacylglycerol lipase ABHD6 (Mus musculus)	µM	=	0.22
